Tested on: MDA-MB-231
protocol notes: Growth inhibition of human MDA-MB-231 cells after 72 hrs by CellTiter-Glo reagent based assay
Assay type: functional
measurement parameters: MDA-MB-231, 72 h
quantity: CC50 (µM)
Your answer should be a plain number; it is taken to be in µM.

// solved cases for CC50 follow
- CC1=C(CC(=O)N2CCN(c3ccncc3)CC2)c2cc(F)ccc2/C1=C\c1ccc([S+](C)[O-])cc1 (centres undefined): 22.7
- CSc1ccc(/C=C2/C(C)=C(CC(=O)N(C)CCN(C)C)c3cc(F)ccc32)cc1: 3.98

Exercise: // query CC50 value for entry `CSc1ccc(/C=C2/C(C)=C(CC(=O)NCc3cccs3)c3cc(F)ccc32)cc1`
Key: 5.66

Exercise: Look up CC50: `COc1cc(/C=C2/C(C)=C(CC(=O)N(C)CCN(C)C)c3cc(F)ccc32)cc(OC)c1OC`
Key: 10.8

Exercise: Please report the recorded CC50 for `CSc1ccc(/C=C2/C(C)=C(CC(=O)NCc3ccco3)c3cc(F)ccc32)cc1` .
Key: 3.4

Exercise: Look at this compound and give its reported CC50. `CSc1ccc(/C=C2/C(C)=C(CC(=O)N3CCN(c4ccncc4)CC3)c3cc(F)ccc32)cc1`
Key: 3.08

Exercise: Field request: CC50 | item: `CC1=C(CC(=O)NCc2ccco2)c2cc(F)ccc2/C1=C\c1nc2ccccc2s1`
Key: 6.7
